Below are Ki measurements against Thymidylate synthase (Mus musculus, UniProt P07607) drawn from the literature.
Sequence (P07607 whole entry): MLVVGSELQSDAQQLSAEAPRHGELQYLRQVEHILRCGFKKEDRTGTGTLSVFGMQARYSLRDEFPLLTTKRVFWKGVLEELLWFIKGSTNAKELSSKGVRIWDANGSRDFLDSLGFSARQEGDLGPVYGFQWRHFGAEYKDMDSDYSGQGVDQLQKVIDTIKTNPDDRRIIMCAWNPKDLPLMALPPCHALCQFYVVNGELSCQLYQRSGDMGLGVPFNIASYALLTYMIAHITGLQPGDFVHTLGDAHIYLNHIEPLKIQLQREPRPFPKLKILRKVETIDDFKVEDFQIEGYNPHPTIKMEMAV
READOUT_NAME: Ki (µM)

                                   molecule  endpoint_unit   result
0  O=C(O)CCC(NC(=O)c1ccc(NCc2ccc3nnnc(O)c3c2)cc1)C(=O)O (stereo not drawn)             µM      2.3
1  CN(C)c1ccc(-c2cn([C@H]3C[C@H](O)[C@@H](COP(=O)(O)O)O3)c(=O)[nH]c2=O)cc1             µM       48
2  C#CCN(Cc1ccc2nc(C)nc(O)c2c1)c1ccc(C(=O)N[C@@H](CCC(=O)NC(C)(C)C(=O)O)C(=O)O)cc1             µM    0.042
3  CN(C)CCNCc1cn([C@H]2C[C@H](O)[C@@H](COP(=O)(O)O)O2)c(=O)[nH]c1=O             µM       14
4  O=c1[nH]c(=O)n([C@H]2C[C@H](O)[C@@H](COP(=O)(O)O)O2)cc1-c1ccc([N+](=O)[O-])cc1             µM     48.3
5  O=c1[nH]c(=O)n([C@H]2C[C@H](O)[C@@H](COP(=O)(O)O)O2)cc1-c1ccc(Br)cc1             µM     29.2
6  CC1=C(C)C(=O)C(c2cn([C@H]3C[C@H](O)[C@@H](COP(=O)(O)O)O3)c(=O)[nH]c2=O)=C(C)C1=O             µM      5.1
7  C#CCN(Cc1cc2c(O)nc(C)nc2cc1C)c1ccc(C(=O)N[C@@H](CCC(=O)N[C@H](CCC(=O)O)C(=O)O)C(=O)O)c(F)c1             µM  0.00019
